- assayed-system: GST-ALK5 (Homo sapiens, UniProt P36897)
- Sequence (P36897 34-503): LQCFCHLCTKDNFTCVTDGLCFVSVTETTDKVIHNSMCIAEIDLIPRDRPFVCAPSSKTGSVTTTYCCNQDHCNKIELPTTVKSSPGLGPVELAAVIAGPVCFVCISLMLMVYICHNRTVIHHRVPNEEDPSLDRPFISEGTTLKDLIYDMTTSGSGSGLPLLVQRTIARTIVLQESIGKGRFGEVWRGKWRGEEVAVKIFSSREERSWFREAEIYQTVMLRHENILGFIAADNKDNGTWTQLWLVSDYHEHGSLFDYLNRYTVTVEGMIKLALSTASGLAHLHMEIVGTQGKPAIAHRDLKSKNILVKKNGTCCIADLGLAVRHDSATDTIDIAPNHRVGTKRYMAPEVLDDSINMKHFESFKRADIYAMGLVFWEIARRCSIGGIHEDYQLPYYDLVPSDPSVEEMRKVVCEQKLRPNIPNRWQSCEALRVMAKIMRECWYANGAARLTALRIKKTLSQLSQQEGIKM
- assay-protocol: In-vitro (enzyme) kinase assay, 384-well flashplate (Example 36)
- Assay type: biochemical
- test-parameters: GST-ALK5, GST-SMAD2 substrate, 3 mM ATP, 30° C., 45 min; read-out: TβR activity (Example 36)
- Method: In-vitro (Enzyme) Assay for Determination of the Efficacy of Inhibitors of the Inhibition of TGF-beta-Mediated Effects The kinase assay was carried out as 384-well flashplate assay. […] Radioactivity was measured in the TopCount. The IC50 values were calculated using RS1.
Measured IC50 by item

Here is how some molecules turned out for IC50.
• Cc1cccc(-c2cc(-c3cncc4ccccc34)c3cccnc3n2)n1 = 1000 to 10000 nM
• Fc1ccc(C(F)(F)F)cc1-c1cc(-c2cncc(-c3cnn(CCN4CCCC4)c3)c2)c2cccnc2n1 = < 100 nM

Now for another entry.
Recorded IC50 for "CNC(=O)c1cccc(-c2cncc(-c3cc(-c4cc(Cl)ccc4F)nc4ncccc34)c2)n1" , please?
1000 to 10000 nM

The origin of these recorded values is patent US8912216B2.
